Item-by-item account of growth
test system: OVCAR-4 ovarian; experiment: NCI-60 one-dose screen, 48 h (100 = growth as untreated, 0 = no growth, -100 = all killed); conditions: 10 µM unless noted
About 83,000 compounds went through this panel and 20% of them were active in at least one assay; those are over-represented in the sample as a whole. Calls of active or inactive are those of the source. Rule for the calls: active = growth percent below 10; inactive = the rest.
property: growth

>>> measurement("COc1cc2c(c(OC)c1OC)CCC(c1cccc(NC(=O)c3cccc(Cl)c3)c1)O2 (centres undefined)")
"81.1% (inactive)"
>>> measurement("CSc1nn2c(-c3cc4cc(Br)ccc4oc3=O)ccnc2c1C#N")
"101% (inactive)"
>>> measurement("O=C1NCCS(=O)(=O)/C1=C\\C=C\\c1cccc(C(F)(F)F)c1")
"53.4% (inactive)"
>>> measurement("COc1ccc2c(c1)c(-c1nc(-c3cn(C)c4ccncc34)cs1)cn2C")
"-3.39% (active)"
>>> measurement("CCN(CC)CCCC(Nc1c2ccc(Cl)cc2nc2ccc(OC)cc12)c1ccncc1 (centres undefined)")
"68.5% (inactive)"
>>> measurement("COc1ccc(C(=O)/C=C/Nc2cc(-c3ccccc3)nn2-c2ccccc2)cc1")
"98.7% (inactive)"
>>> measurement("COc1ccc(-c2ccc(-c3ccc(C(=N)N)nc3)s2)cc1")
"-79.7% (active)"
>>> measurement("CNC1=C([N+](=O)[O-])C(c2ccc(OC)cc2)C(C#N)=C(c2ccc[nH]2)O1 (centres undefined)")
"92.8% (inactive)"
>>> measurement("C#Cc1c(I)n(C2OC(CO[Si](C)(C)C(C)(C)C)C3OC(C)(C)OC32)c(=O)[nH]c1=O (centres undefined)")
"88.9% (inactive)"
>>> measurement("C=CN(C(=O)N1CCN(c2cc3c(cc2F)c(=O)c(C(=O)O)cn3C2CC2)CC1)c1nc(-c2ccc(C)cc2)cs1")
"23.3% (inactive)"
>>> measurement("CO[C@H]1CC(c2ccc[nH]2)=N[C@]12O[C@@H](C)C[C@@H]1CCCCCCCc3ccc([nH]3)[C@H]12")
"29.2% (inactive)"
>>> measurement("CN(C)C(=S)NN=C(c1ccccn1)c1ccccn1")
"21.5% (inactive)"
>>> measurement("O=c1c(Cc2ccc(F)cc2)cc(-c2ccccc2)nn1C/C(=N/O)c1ccccc1")
"41.5% (inactive)"
>>> measurement("CC(=O)c1c(/C=C/c2ccc(C)cc2)c2ccccc2[nH]c1=O")
"88.9% (inactive)"

----------
Test system: SK-MEL-5 melanoma
Experiment: NCI-60 one-dose screen, 48 h (100 = growth as untreated, 0 = no growth, -100 = all killed)
Conditions: 10 µM unless noted
Description: Growth inhibition of the SK-MEL-5 human tumor cell line is measured as a screen for anti-cancer activity. Cells are grown in 96 well plates and exposed to the test compound for 48 hours. Compounds are tested at a single concentration, which is 10^-5 M for most compounds. The reported endpoint is percent growth (GI% or GIPRCNT), where numbers from 0 - 100% represent growth inhibition, and numbers from -100% - 0 represent cell death. For example, a value of 40 represents 60% growth inhibition. […]
Compounds without any hit were thinned out: in the full panel of roughly 83,000, 20% have a hit.
property: growth (%)

>>> measurement("Oc1ccc(Cc2ccc(O)c3ncccc23)c2cccnc12")
-47.3
>>> measurement("N#CC1=C(N)Oc2c(ccc3ccccc23)C1c1cc2ccccc2n2nnnc12 (stereo not drawn)")
7.97
>>> measurement("COc1ccc(NC(=O)c2ccc(NC3=C(c4ccc(Cl)cc4)C(=O)NC3=O)cc2)cc1")
80.8
>>> measurement("N#Cc1nn(-c2ccccn2)c(N)c1C#N")
104
>>> measurement("COC(=O)c1nc(-c2ccc(C)cc2)oc1N1CCOCC1")
103
>>> measurement("NC(=N\\N=C/c1ccc(Cl)cc1Cl)/C(N)=N\\N=C/c1ccc(Cl)cc1Cl")
108
>>> measurement("C=C(C)[C@@H]1CC[C@]2(COCCCNCCCN)CC[C@]3(C)[C@H](CC[C@@H]4[C@@]5(C)CC[C@H](OCCCN)C(C)(C)[C@@H]5CC[C@]43C)[C@@H]12")
67.2
>>> measurement("C#CCOc1cccc(Nc2c(Cl)c(CCl)nc3ccc(Oc4ccccc4)cc23)c1")
30.4

----------
system: SW-620 colon; assay: NCI-60 one-dose screen, 48 h (100 = growth as untreated, 0 = no growth, -100 = all killed); details: 10 µM unless noted
This is part of a sample that, as a whole, favours compounds with a hit. Of some 83,000 tested, about 20% had one in any assay. Active and inactive are the calls of the source. How the source made its calls: active means growth percent below 10; inactive means the rest.
A collection of compounds and their measured growth
property: growth

>>> measurement("CCNc1nc(-c2ccc(Cl)c(OC)c2)c(-c2ccnc(NCCNS(=O)(=O)c3ccc(Cl)cc3)n2)s1")
"29.5% (inactive)"
>>> measurement("CCN1C(=O)N(CC)C2C1NN=c1s/c(=C\\c3ccc([N+](=O)[O-])cc3)c(=O)n12 (configuration not stated)")
"19.8% (inactive)"
>>> measurement("CCCCCCCCNC(=O)[C@@H](N)CSCOC(C)=O")
"84.6% (inactive)"
>>> measurement("C=CCNc1nc(O)c(/C=C2\\C=Nc3ncccc32)s1")
"7.39% (active)"
>>> measurement("Cc1cc2c(c(C)n1)CN(C(=O)Nc1nc(-c3cncs3)ccc1N)C2")
"107% (inactive)"
>>> measurement("Cc1nn(C)c2ncnc(Nc3ccccc3Br)c12")
"106% (inactive)"
>>> measurement("COc1ccc(N2C(=O)/C(=C/C(Cl)=C/c3ccc([N+](=O)[O-])cc3)SC2=S)cc1")
"-13.7% (active)"
>>> measurement("CCOc1ccc(N2C(=O)CCSC2=S)cc1")
"104% (inactive)"
>>> measurement("CC(C)(C)n1cc(-c2ccnc(NCCNS(=O)(=O)c3ccc(Br)cc3)c2)c(-c2cccc(O)c2)n1")
"5.53% (active)"
>>> measurement("Nc1ccc(N)c2c1C(=O)c1cccc([N+](=O)[O-])c1C2=O")
"51.5% (inactive)"
>>> measurement("N#C/C(=C/C=C/c1ccccc1)S(=O)c1ccccc1 (configuration not stated)")
"-40.4% (active)"
>>> measurement("CCOc1ccccc1NC(=O)CCC(=O)OC")
"104% (inactive)"

----------
tested on: BT-549 breast; assay: NCI-60 one-dose screen, 48 h (100 = growth as untreated, 0 = no growth, -100 = all killed); conditions: 10 µM unless noted
The panel holds about 83,000 compounds, 20% with a hit somewhere; the sample as a whole holds those more often.
growth values for the compounds below.
property: growth (%)

>>> measurement("COc1cccc2cc(N(C)c3ncnc4ccccc34)ccc12")
32.3
>>> measurement("CCN1C(=O)N(CC)C2C1NN=c1s/c(=C\\c3ccccc3)c(=O)n12 (configuration not stated)")
13.2
>>> measurement("Cc1ccc(C2(C)NC(=O)N(CC(=O)Nc3cccc(C)c3)C2=O)cc1 (configuration not stated)")
90.9
>>> measurement("Cn1cc(-c2nc(-c3c[nH]c4ccncc34)cs2)c2cc(F)ccc21")
69.6
>>> measurement("COC(=O)c1c(C)nc(C)c2c1C(=O)C(Br)=C(NCCCCO)C2=O")
91.2
>>> measurement("COC(=O)CNC(=O)c1ccc(NC(=O)c2[nH]c(C)c(Cl)c2Cl)c(O[C@H]2CCNC2)c1")
102
>>> measurement("CCNc1nc(-c2ccc(Cl)c(OC)c2)c(-c2ccnc(NCCNS(=O)(=O)c3ccc(Cl)cc3)n2)s1")
5.74
>>> measurement("Cn1ccnc1C(=O)/C=C/c1ccc(C(=O)Nc2ccccc2F)cc1")
-13.2
>>> measurement("Nc1n[nH]c2cccc(C#Cc3cccc(C(=O)Nc4ccc(Cl)c(C(F)(F)F)c4)c3)c12")
78.3
>>> measurement("Cc1cc(=O)oc2cc(Oc3nc(-c4ccccc4)cn4c(-c5ccccc5)cnc34)ccc12")
82.6
>>> measurement("O=C(O)/C=C\\C(=O)Nc1ccc2c(c1)Cc1cc(F)ccc1-2")
111
>>> measurement("CN(Cc1ccccc1)c1nc(Cl)c(C2CC(c3ccc(Cl)cc3)=NN2c2cc(Cl)cc(Cl)c2)s1 (configuration not stated)")
101

----------
system: TK-10 renal; assay: NCI-60 one-dose screen, 48 h; details: 10 µM unless noted
Compounds without any hit were thinned out: in the full panel of roughly 83,000, 20% have a hit. The source made the active and inactive calls. How the source made its calls: active means growth percent below 10; inactive means the rest.
Outcome codes: yes (1) = active, no (0) = inactive

>>> label_class("CC1=C(C(=O)OCc2ccccc2)C(c2ccc3c(c2)OCO3)n2c(nc3ccccc32)N1 (stereo unspecified)")
"no (0)"
>>> label_class("COC(=O)[C@@H](Cc1c[nH]c2ccccc12)NC[C@@H](O)CN1C(=O)/C(=C\\c2cc(OC)c(OC)c(OC)c2)c2ccccc21")
"no (0)"
>>> label_class("O=C(Nc1ccc(Cl)cc1)C1=NCCCCN1")
"no (0)"
>>> label_class("Cc1ccccc1NC(=O)Cn1cc(CN2CCN(c3ccnc4cc(Cl)ccc34)CC2)nn1")
"no (0)"
>>> label_class("NS(=O)(=O)Oc1cccc(-c2nc3sccn3c2-c2ccccc2)c1")
"no (0)"
>>> label_class("O=C(Nc1ccc(Oc2cccc(F)c2)c(Cl)c1)c1cnccn1")
"no (0)"
>>> label_class("O=C1c2c(c3c4cc(F)ccc4oc3c3[nH]c4ccccc4c23)C(=O)N1O")
"no (0)"
>>> label_class("C1=C2CCCC3=Cc4ccccc4OC23Oc2ccccc21")
"no (0)"
>>> label_class("CS(=O)(=O)Nc1cc(-c2ccc3ncnc(Nc4cccc(Cl)c4)c3c2)cnc1Cl")
"yes (1)"
>>> label_class("Cc1cc(C(=O)Nc2cc(Nc3ncccc3-c3ncnc4nc[nH]c34)ccc2F)cc(C(C)(C)C#N)c1")
"no (0)"
>>> label_class("CN(C)c1ccc(Cc2cc(-c3ccccc3)nn(C/C(=N/O)c3ccccc3)c2=O)cc1")
"no (0)"
>>> label_class("COc1ccc(NC(=O)c2sc3nc(C)c(C(=O)c4ccccc4)cc3c2N)cc1")
"no (0)"
>>> label_class("COc1cc2c(c(OC)c1OC)C(=O)CC(c1cccc(C(=O)Nc3ccc(Br)cc3)c1)O2 (stereo unspecified)")
"no (0)"
>>> label_class("COc1cc(-c2ccc(-c3ccc(C(=N)N)s3)s2)cc(OC)c1OC")
"no (0)"
>>> label_class("O=C(NCCN1CCOCC1)c1cncnc1Nc1ccc2c(ccn2Cc2ccccn2)c1")
"no (0)"
>>> label_class("C=C(C)[C@@H]1CCC[C@]2(C(=O)OC)CC[C@]3(C)[C@@H](CC[C@@H]4[C@@]5(C)CCCNC(C)(C)[C@@H]5CC[C@]43C)[C@@H]12")
"no (0)"
>>> label_class("C=C(C)[C@@H]1CC[C@]2(C#N)CC[C@]3(C)[C@H](CC[C@@H]4[C@@]5(C)CCCNC(C)(C)[C@@H]5CC[C@]43C)[C@@H]12")
"no (0)"
>>> label_class("Cc1c(C(=O)C(SC(=S)N2CCOCC2)SC(=S)N2CCOCC2)nnn1-c1ccc([N+](=O)[O-])cc1")
"no (0)"
>>> label_class("CCOC(=O)C#Cc1c(CC(=O)OCC)nnn1[C@H]1O[C@@H](CO)[C@@H]2OC(C)(C)O[C@@H]21")
"no (0)"
>>> label_class("CC1(C)CC(=O)C2=C(C1)OC(C(=O)c1ccccc1)C2c1cccc(Oc2ccccc2)c1 (stereo unspecified)")
"no (0)"
>>> label_class("CC(=O)O[C@H]1C[C@@]2(C)[C@@H](C[C@@H](O)[C@H]3[C@@]4(C)CC[C@H](N5CCCC5)[C@@H](C)[C@@H]4CC[C@@]32C)/C1=C(\\CCC=C(C)C)C(=O)O")
"no (0)"
>>> label_class("CCN1C(=O)N(CC)C2C1NN=c1s/c(=C\\c3ccc(F)cc3)c(=O)n12 (stereo unspecified)")
"no (0)"
>>> label_class("Cc1cc(=O)oc2cc(Oc3nc(-c4ccccc4)cn4c(-c5ccccc5)cnc34)ccc12")
"no (0)"
>>> label_class("Cn1ccnc1C(=O)/C=C/c1ccc(C(=O)Nc2c(F)c(F)c(F)c(F)c2F)cc1")
"no (0)"
>>> label_class("CC(=O)c1ccc(Nc2nccc(-c3ccc(Cl)cc3)n2)cc1")
"no (0)"
>>> label_class("CN1CCN(Cc2ccc(NC(=O)c3cncc(C#Cc4cnc(N)c5ncccc45)c3)cc2Cl)CC1")
"no (0)"
